- assay.summary: Blood trough level of TAC in kidney transplant recipients with COVID-19 given ESV or NMV/RTV
- assay.conditions: female, human, in vivo, 3 mg/day

cpd.smiles: C=CC[C@@H]1/C=C(\C)C[C@H](C)C[C@H](OC)[C@H]2O[C@@](O)(C(=O)C(=O)N3CCCC[C@H]3C(=O)O[C@H](/C(C)=C/[C@@H]3CC[C@@H](O)[C@H](OC)C3)[C@H](C)[C@@H](O)CC1=O)[C@H](C)C[C@@H]2OC
concentration at 3 day, ng/mL: 58
